Tested on: 242566-281-R-J2-PDC complex spheroid viability
PROCEDURE_SUMMARY: Anticancer human tumor 242566-281-R-J2-PDC patient-derived pancreatic carcinoma cell line growth inhibition [CLK]; active = viability on the fitted dose curve at most 10% of control; inactive = the rest
TEST_CONTEXT: second compound 0.316 µM; first compound 0.0949 µM
Source text: A high-throughput screen of multi-cell type tumor spheroids was designed to identify active combinations of […] and targeted small molecules. Complex spheroids include a stromal component modeled by human endothelial cells (HUVEC) and fibroblasts modeled by human mesenchymal stem cells (MSCs). […] Compounds. […] If the clinical Cmax for an agent had not been determined, the highest concentration tested was 10 microM. […]
Thanks in advance; please answer with one of these: active, inactive

What did the test return for CC(C)CC(NC(=O)C(Cc1ccccc1)NC(=O)c1cnccn1)B(O)O (stereo unspecified) + CNC(=O)c1ccc(Nc2nc(OC3CCCC3)c3c(-c4ccc5nc(C)oc5c4)c[nH]c3n2)c(OC)c1 ?
active

What did the test return for NC(=O)C(=Cn1cnc(-c2cc(C(F)(F)F)cc(C(F)(F)F)c2)n1)c1cncnc1 + CNC(=O)c1ccc(Nc2nc(OC3CCCC3)c3c(-c4ccc5nc(C)oc5c4)c[nH]c3n2)c(OC)c1 ?
inactive

What did the test return for C=CC(=O)Nc1cc(Nc2nccc(-c3cn(C)c4ccccc34)n2)c(OC)cc1N(C)CCN(C)C + CNC(=O)c1ccc(Nc2nc(OC3CCCC3)c3c(-c4ccc5nc(C)oc5c4)c[nH]c3n2)c(OC)c1 ?
inactive

What did the test return for CC(C)CC(NC(=O)C(Cc1ccccc1)NC(=O)c1cnccn1)B(O)O (stereo unspecified) + CN1CCN(c2cc(C(=O)Nc3cc4cc(-c5cnn(C)c5)ccc4cn3)ccn2)CC1 ?
active

What did the test return for NC(=O)C(=Cn1cnc(-c2cc(C(F)(F)F)cc(C(F)(F)F)c2)n1)c1cncnc1 + CN1CCN(c2cc(C(=O)Nc3cc4cc(-c5cnn(C)c5)ccc4cn3)ccn2)CC1 ?
active

What did the test return for C=CC(=O)Nc1cc(Nc2nccc(-c3cn(C)c4ccccc34)n2)c(OC)cc1N(C)CCN(C)C + CN1CCN(c2cc(C(=O)Nc3cc4cc(-c5cnn(C)c5)ccc4cn3)ccn2)CC1 ?
inactive

---

Tested on: 242566-281-R-J2-PDC complex spheroid viability
PROCEDURE_SUMMARY: Anticancer human tumor 242566-281-R-J2-PDC cell line growth inhibition [CLK];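 also: spheroids exposed to compounds for 7 days before readout; 100% = DMSO vehicle control wells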
TEST_CONTEXT: second compound 1 µM; first compound 3.16 µM; hits give low values
QUANTITY_KIND: viability, T/C (%)
Form entry: value (%) — number only.

API: value(readout= viability, T/C, system= 242566-281-R-J2-PDC complex spheroid viability, query= CCCS(=O)(=O)Nc1ccc(F)c(C(=O)c2c[nH]c3ncc(-c4ccc(Cl)cc4)cc23)c1F + CNC(=O)c1ccc(Nc2nc(OC3CCCC3)c3c(-c4ccc5nc(C)oc5c4)c[nH]c3n2)c(OC)c1 )
42.6

API: value(readout= viability, T/C, system= 242566-281-R-J2-PDC complex spheroid viability, query= COc1cccc2c1C(=O)c1c(O)c3c(c(O)c1C2=O)CC(O)(C(=O)CO)CC3OC1CC(N)C(O)C(C)O1 (stereo unspecified) + CN1CCN(c2cc(C(=O)Nc3cc4cc(-c5cnn(C)c5)ccc4cn3)ccn2)CC1 )
2.48

API: value(readout= viability, T/C, system= 242566-281-R-J2-PDC complex spheroid viability, query= COc1ccc([C@@H](O)c2cc(-c3ncnc4cc(N5CCOCC5)ccc34)c(F)cc2Cl)nn1 + CNC(=O)c1ccc(Nc2nc(OC3CCCC3)c3c(-c4ccc5nc(C)oc5c4)c[nH]c3n2)c(OC)c1 )
53.1

API: value(readout= viability, T/C, system= 242566-281-R-J2-PDC complex spheroid viability, query= CC1COCCN1c1cc(C2(S(C)(=N)=O)CC2)nc(-c2ccnc3[nH]ccc23)n1 (stereo unspecified) + CNC(=O)c1ccc(Nc2nc(OC3CCCC3)c3c(-c4ccc5nc(C)oc5c4)c[nH]c3n2)c(OC)c1 )
34.3

API: value(readout= viability, T/C, system= 242566-281-R-J2-PDC complex spheroid viability, query= CC(Nc1ccc2c(c1)OCCn1cc(N3C(=O)OCC3C(F)F)nc1-2)C(N)=O (stereo unspecified) + CNC(=O)c1ccc(Nc2nc(OC3CCCC3)c3c(-c4ccc5nc(C)oc5c4)c[nH]c3n2)c(OC)c1 )
19.8

API: value(readout= viability, T/C, system= 242566-281-R-J2-PDC complex spheroid viability, query= CC(CO)NC(=O)c1cc(-c2ccc(Cl)cc2)nn(-c2cnn(C)c2)c1=O (stereo unspecified) + CN1CCN(c2cc(C(=O)Nc3cc4cc(-c5cnn(C)c5)ccc4cn3)ccn2)CC1 )
4.52
